Values compiled from paper PMC8162404.

- TARGET UNDER TEST: Gal-1 (Homo sapiens, UniProt P09382)
- Construct: made in house; host or cells: E. coli BL21(DE3)
- Sequence (P09382 whole entry): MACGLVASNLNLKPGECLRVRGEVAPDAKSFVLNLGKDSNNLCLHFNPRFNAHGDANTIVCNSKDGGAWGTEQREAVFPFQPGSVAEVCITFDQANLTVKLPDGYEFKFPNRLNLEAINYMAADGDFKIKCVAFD
- PROTOCOL: Pull-down assay with immobilized protein and LSM libraries
- Type: binding
- MEASUREMENT CONDITIONS: H14 library; 1:1 binding assumed; read-out: Surface mapping KD (apparent)
pKd: −log10 of the molar value.
MEASURED QUANTITY: pKd

>  <CPD SMILES>
NC(=O)CC[C@@H](CC(=O)N[C@H]1CCCC[C@@H]1C(=O)N[C@H]1CCCC[C@@H]1C(=O)N[C@@H](CC(=O)O)CC(=O)N[C@H]1CCCC[C@@H]1C(N)=O)NC(=O)[C@H]1CCCC[C@@H]1N

>  <QUANTITATIVE READOUT>
3.42

$$$$
>  <CPD SMILES>
CC[C@H](C)[C@@H](CC(=O)N[C@H]1CCCC[C@@H]1C(N)=O)NC(=O)[C@H]1CCCC[C@@H]1NC(=O)[C@H]1CCCC[C@@H]1NC(=O)C[C@H](CCC(N)=O)NC(=O)[C@H]1CCCC[C@@H]1N

>  <QUANTITATIVE READOUT>
3.34

$$$$
>  <CPD SMILES>
N=C(N)NCCC[C@@H](CC(=O)N[C@H]1CCCC[C@@H]1C(N)=O)NC(=O)[C@H]1CCCC[C@@H]1NC(=O)[C@H]1CCCC[C@@H]1NC(=O)C[C@H](CC(N)=O)NC(=O)[C@H]1CCCC[C@@H]1N

>  <QUANTITATIVE READOUT>
3.94

$$$$
>  <CPD SMILES>
CC(C)[C@@H](CC(=O)N[C@H]1CCCC[C@@H]1C(=O)N[C@H]1CCCC[C@@H]1C(=O)N[C@@H](CC(N)=O)CC(=O)N[C@H]1CCCC[C@@H]1C(N)=O)NC(=O)[C@H]1CCCC[C@@H]1N

>  <QUANTITATIVE READOUT>
3.52

$$$$
>  <CPD SMILES>
NC(=O)CC[C@@H](CC(=O)N[C@H]1CCCC[C@@H]1C(=O)N[C@H]1CCCC[C@@H]1C(=O)N[C@H](CC(=O)N[C@H]1CCCC[C@@H]1C(N)=O)Cc1ccccc1)NC(=O)[C@H]1CCCC[C@@H]1N

>  <QUANTITATIVE READOUT>
3.55

$$$$
>  <CPD SMILES>
CC(C)[C@@H](CC(=O)N[C@H]1CCCC[C@@H]1C(N)=O)NC(=O)[C@H]1CCCC[C@@H]1NC(=O)[C@H]1CCCC[C@@H]1NC(=O)C[C@@H](NC(=O)[C@H]1CCCC[C@@H]1N)C(C)C

>  <QUANTITATIVE READOUT>
3.61

$$$$
>  <CPD SMILES>
NC(=O)CC[C@@H](CC(=O)N[C@H]1CCCC[C@@H]1C(N)=O)NC(=O)[C@H]1CCCC[C@@H]1NC(=O)[C@H]1CCCC[C@@H]1NC(=O)C[C@H](Cc1ccc(O)cc1)NC(=O)[C@H]1CCCC[C@@H]1N

>  <QUANTITATIVE READOUT>
3.62

$$$$
>  <CPD SMILES>
CC(C)[C@@H](CC(=O)N[C@H]1CCCC[C@@H]1C(=O)N[C@H]1CCCC[C@@H]1C(=O)N[C@@H](CCC(N)=O)CC(=O)N[C@H]1CCCC[C@@H]1C(N)=O)NC(=O)[C@H]1CCCC[C@@H]1N

>  <QUANTITATIVE READOUT>
3.79

$$$$
>  <CPD SMILES>
CSCC[C@@H](CC(=O)N[C@H]1CCCC[C@@H]1C(N)=O)NC(=O)[C@H]1CCCC[C@@H]1NC(=O)[C@H]1CCCC[C@@H]1NC(=O)C[C@H](CCC(N)=O)NC(=O)[C@H]1CCCC[C@@H]1N

>  <QUANTITATIVE READOUT>
3.44

$$$$

###

- TARGET UNDER TEST: CaM (Bos taurus, UniProt P62157)
- Construct: made in house; host or cells: E. coli BL21 (DE3)
- PROTOCOL: Competition pull-down with native ligand TRPV1-Ct15
- Format: binding, bovine
- MEASUREMENT CONDITIONS: H14 library; competitor peptide 200 µM; read-out: Surface mapping KD (apparent), competition
# log10 of Kd per entry
MEASURED QUANTITY: log10 of Kd (log10 of the value in µM)

>  <MOLECULE>
CSCC[C@@H](CC(=O)N[C@H]1CCCC[C@@H]1C(N)=O)NC(=O)[C@H]1CCCC[C@@H]1NC(=O)[C@H]1CCCC[C@@H]1NC(=O)C[C@H](CO)NC(=O)[C@H]1CCCC[C@@H]1N [H14 SM]

>  <log10 of Kd>
2.32

$$$$
>  <MOLECULE>
NC(=O)[C@H]1CCCC[C@@H]1NC(=O)C[C@H](Cc1ccc(O)cc1)NC(=O)[C@H]1CCCC[C@@H]1NC(=O)[C@H]1CCCC[C@@H]1NC(=O)C[C@H](CO)NC(=O)[C@H]1CCCC[C@@H]1N [H14 SY]

>  <log10 of Kd>
2.39

$$$$
>  <MOLECULE>
NCCCC[C@@H](CC(=O)N[C@H]1CCCC[C@@H]1C(N)=O)NC(=O)[C@H]1CCCC[C@@H]1NC(=O)[C@H]1CCCC[C@@H]1NC(=O)C[C@H](CCC(N)=O)NC(=O)[C@H]1CCCC[C@@H]1N [H14 QK]

>  <log10 of Kd>
2.32

$$$$
>  <MOLECULE>
CC[C@H](C)[C@@H](CC(=O)N[C@H]1CCCC[C@@H]1C(N)=O)NC(=O)[C@H]1CCCC[C@@H]1NC(=O)[C@H]1CCCC[C@@H]1NC(=O)C[C@H](CCC(N)=O)NC(=O)[C@H]1CCCC[C@@H]1N [H14 QI]

>  <log10 of Kd>
2.38

$$$$
>  <MOLECULE>
CSCC[C@@H](CC(=O)N[C@H]1CCCC[C@@H]1C(N)=O)NC(=O)[C@H]1CCCC[C@@H]1NC(=O)[C@H]1CCCC[C@@H]1NC(=O)C[C@H](Cc1ccc(O)cc1)NC(=O)[C@H]1CCCC[C@@H]1N [H14 YM]

>  <log10 of Kd>
2.60

$$$$
>  <MOLECULE>
NC(=O)[C@H]1CCCC[C@@H]1NC(=O)C[C@H](Cc1c[nH]c2ccccc12)NC(=O)[C@H]1CCCC[C@@H]1NC(=O)[C@H]1CCCC[C@@H]1NC(=O)C[C@H](Cc1c[nH]c2ccccc12)NC(=O)[C@H]1CCCC[C@@H]1N [H14 WW]

>  <log10 of Kd>
1.54

$$$$
>  <MOLECULE>
CC[C@H](C)[C@@H](CC(=O)N[C@H]1CCCC[C@@H]1C(N)=O)NC(=O)[C@H]1CCCC[C@@H]1NC(=O)[C@H]1CCCC[C@@H]1NC(=O)C[C@H](CC(C)C)NC(=O)[C@H]1CCCC[C@@H]1N [H14 LI]

>  <log10 of Kd>
2.45

$$$$
>  <MOLECULE>
CC[C@H](C)[C@@H](CC(=O)N[C@H]1CCCC[C@@H]1C(N)=O)NC(=O)[C@H]1CCCC[C@@H]1NC(=O)[C@H]1CCCC[C@@H]1NC(=O)C[C@H](CO)NC(=O)[C@H]1CCCC[C@@H]1N [H14 SI]

>  <log10 of Kd>
2.67

$$$$
>  <MOLECULE>
CC(C)[C@@H](CC(=O)N[C@H]1CCCC[C@@H]1C(N)=O)NC(=O)[C@H]1CCCC[C@@H]1NC(=O)[C@H]1CCCC[C@@H]1NC(=O)C[C@H](Cc1ccc(O)cc1)NC(=O)[C@H]1CCCC[C@@H]1N [H14 YV]

>  <log10 of Kd>
2.65

$$$$
>  <MOLECULE>
N=C(N)NCCC[C@@H](CC(=O)N[C@H]1CCCC[C@@H]1C(=O)N[C@H]1CCCC[C@@H]1C(=O)N[C@@H](CCCCN)CC(=O)N[C@H]1CCCC[C@@H]1C(N)=O)NC(=O)[C@H]1CCCC[C@@H]1N [H14 RK]

>  <log10 of Kd>
2.40

$$$$
>  <MOLECULE>
CC[C@H](C)[C@@H](CC(=O)N[C@H]1CCCC[C@@H]1C(N)=O)NC(=O)[C@H]1CCCC[C@@H]1NC(=O)[C@H]1CCCC[C@@H]1NC(=O)C[C@H](Cc1c[nH]c2ccccc12)NC(=O)[C@H]1CCCC[C@@H]1N [H14 WI]

>  <log10 of Kd>
1.74

$$$$
>  <MOLECULE>
NC(=O)[C@H]1CCCC[C@@H]1NC(=O)C[C@H](Cc1ccc(O)cc1)NC(=O)[C@H]1CCCC[C@@H]1NC(=O)[C@H]1CCCC[C@@H]1NC(=O)C[C@H](Cc1c[nH]c2ccccc12)NC(=O)[C@H]1CCCC[C@@H]1N [H14 WY]

>  <log10 of Kd>
2.08

$$$$
>  <MOLECULE>
CSCC[C@@H](CC(=O)N[C@H]1CCCC[C@@H]1C(N)=O)NC(=O)[C@H]1CCCC[C@@H]1NC(=O)[C@H]1CCCC[C@@H]1NC(=O)C[C@H](CCC(N)=O)NC(=O)[C@H]1CCCC[C@@H]1N [H14 QM]

>  <log10 of Kd>
2.50

$$$$
